# Target or system: Ephrin type-A receptor 4 (Homo sapiens) (UniProt P54764);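 further: mean inhibition of EPHA4 from the GSK PKIS screening set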
# Sequence (P54764 whole entry): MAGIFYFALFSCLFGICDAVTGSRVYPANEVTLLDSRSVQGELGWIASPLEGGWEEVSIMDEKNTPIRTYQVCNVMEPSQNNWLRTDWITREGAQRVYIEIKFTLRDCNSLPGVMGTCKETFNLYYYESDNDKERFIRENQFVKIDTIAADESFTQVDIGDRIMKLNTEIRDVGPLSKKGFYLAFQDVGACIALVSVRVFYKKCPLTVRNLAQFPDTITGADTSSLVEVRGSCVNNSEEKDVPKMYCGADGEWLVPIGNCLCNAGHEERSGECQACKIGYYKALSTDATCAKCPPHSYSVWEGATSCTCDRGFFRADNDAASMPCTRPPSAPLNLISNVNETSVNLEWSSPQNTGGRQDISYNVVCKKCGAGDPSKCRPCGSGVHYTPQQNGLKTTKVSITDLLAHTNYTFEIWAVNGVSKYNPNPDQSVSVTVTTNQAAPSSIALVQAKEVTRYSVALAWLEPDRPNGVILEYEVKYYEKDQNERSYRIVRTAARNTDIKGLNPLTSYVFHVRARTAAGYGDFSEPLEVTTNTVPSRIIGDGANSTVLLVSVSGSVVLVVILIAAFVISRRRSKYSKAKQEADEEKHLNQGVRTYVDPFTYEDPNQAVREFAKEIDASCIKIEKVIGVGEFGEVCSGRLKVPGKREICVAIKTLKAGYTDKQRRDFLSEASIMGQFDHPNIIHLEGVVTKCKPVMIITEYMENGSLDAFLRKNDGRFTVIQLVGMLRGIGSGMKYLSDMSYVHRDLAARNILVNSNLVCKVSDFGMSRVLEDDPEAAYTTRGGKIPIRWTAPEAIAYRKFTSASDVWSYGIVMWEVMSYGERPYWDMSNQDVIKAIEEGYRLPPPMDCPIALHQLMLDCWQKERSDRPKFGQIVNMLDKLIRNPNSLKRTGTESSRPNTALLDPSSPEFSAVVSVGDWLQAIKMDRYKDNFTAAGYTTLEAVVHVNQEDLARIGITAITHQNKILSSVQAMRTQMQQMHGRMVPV
# Study conditions: at 0.1 µM
Value type: inhibition (%)
Lab book: enter the figure in %, no units written.

1) COc1cc(N2CCN(C(C)C)CC2)ccc1Nc1nc(Nc2cccc3ncccc23)c2cc[nH]c2n1 | 0.21
2) O=C1Nc2ccccc2/C1=C1\CCc2cc(O)ccc21 | 7.97
3) COc1cccc(-n2ncc3c(N/N=C/c4ccc(C(=O)NCCN(C)C)cc4)ncnc32)c1 | 2.76
4) CC1=C(C(=O)Nc2ccc3[nH]ncc3c2)C(c2ccc(F)cc2)N=C(c2ccc(C(F)(F)F)nc2)N1 (stereo not given) | 5.75

Would you kindly look at the next entry?
What measured inhibition goes with CC1(C)CC(n2cnc(-c3ccc(F)cc3)c2-c2ccnc(N)n2)CC(C)(C)N1 ?
0.35
